biological target: T1, receptor-binding domain (RBD) of the wild-type SARS-CoV-2 spike protein (SARS-CoV-2, UniProt P0DTC2 333-527); assay: BLI; settings: both partners purified
T1 construct: also called SARS-CoV-2 RBD
Here, each record is paired with measured Kd data.
Property label: Kd (nM)

{"Binder": "hRBD4 (antibody, V domains shown) VH: QLQLQESGPGLVKPSETLSLTCTVSGGSISTSSHYCAWIRQPPGKGLEWIGSIYYRGSTYYNPSLKSRVTISVDTSKNHFSLKLSSVTAADTAVYYCARRRAGSYYKDLFDYWGQGTLVTVSS VL: NFMLTQPHSVSESPGKTVTISCTRSSGSIASNYVQWYQQRPGSAPTTVIYEDNQRPSGVPDRFSGSIDSSSNSASLTISGLKTEDEADYYCQSYDNSNHEVFGGGTKLTVL", "Readout unit": "nM", "Modifier": "=", "Quantitative readout": 0.491}
{"Binder": "hRBD8 (antibody, V domains shown) VH: QVQLQQWGAGRLKPSETLSLTCAVYGGSFSGYYWSWIRQPPGKGLEWIGEIDHSGSTNYNSSLKSRVTISVDTSKKWFSLKLSSVTAADTAVYYCARAHLIGDCGGGRCYSGPDPSNWFDPWGQGTLVTVSS VL: SSELTQDPAVSVALGQTVRITCQGDSLRSYYASWYQQKPGQAPILVIYGKDNRPSGIPDRFSGSSSENTASLTITGAQAEDEADYYCNCRDTSGNHPVFGGGTKLTVL", "Readout unit": "nM", "Modifier": "=", "Quantitative readout": 9.74}
{"Binder": "hRBD13 (antibody, V domains shown) VH: QVQLVESGGGVVQPGRSLRLSCAVSGFTFRNYGMDWVRQAPGKGLEWVAVISYDGSNKYYADSVKGRFTISRDNSKNTLFLHLNSLRAEDTAVYYCAKAGGGPYCGGGNCYMHYFDYWGQGTQVTVSS VL: DIQMTQSPSSLSASVGDRVTITCQASQDINNYLNWYQQKPGKAPKLLIYDASNLETGVPLRFSGSGSATHFSFTISSLQPEDIATYYCQQYDHLPCTFGQGTKLEIR", "Readout unit": "nM", "Modifier": "<", "Quantitative readout": 0.001}

Taken from paper PMC12167710.
